# experiment description: chemical genetic growth profiling, strain panel (AID 1159580);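 also: tested at 20 µM; growth read once vehicle control cultures reached saturation at 30 °C; 1 = growth at the plate median or of vehicle wells; lower values mean less growth of the strain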
# run parameters: S. cerevisiae deletion strains, growth OD, locus YKL068W
In all, about 5,500 compounds went through this assay and about 2,000 (36%) were called active. Roughly 18% stayed inconclusive and do not appear here. Rule as the data show it: active = normalized growth mostly below about 0.91 (no sharp cut-off); inconclusive = no clear call, values can overlap the other calls; inactive = mostly above about 0.92. The list shows a part of the results.
Give one outcome, nothing more. List: true (1) (active), false (0) (inactive)

Solved cases below.
>>> group("CNc1ccc(C(=O)CC(O)CCC(C)C2OC(=O)CC(O)CC(=O)CC(O)CC(O)CC(O)CC(O)CC3(O)CC(O)C(C(=O)OC)C(CC(OC4OC(C)C(O)C(N)C4O)/C=C/C=C/C=C/C=C/C=C/C=C/C=C/C2C)O3)cc1 (centres undefined)")
"true (1)"
>>> group("C=NC(C(=O)NC1C(=O)N2C1SC(C)(C)C2C(=O)O)c1ccccc1 (centres undefined)")
"false (0)"
>>> group("C[C@]12C=CC(=O)C=C1CCC1C2[C@@H](O)C[C@@]2(C)C1CC[C@]2(O)C(=O)CO (some centres undefined)")
"false (0)"
>>> group("CC1OC(O[C@H]2/C=C/C=C/C=C/C=C/C=C/C=C/C=C/[C@H](C)[C@@H](O)[C@@H](C)[C@H](C)OC(=O)CC(O)CC(O)CCC(O)C(O)CC(O)C[C@]3(O)C[C@H](O)C(C(=O)O)C(C2)O3)C(O)[C@H](N)C1O (some centres undefined)")
"false (0)"
>>> group("O=NN(CCCl)C(=O)NCCCl")
"false (0)"
>>> group("Clc1ccc(COC(Cn2ccnc2)c2ccc(Cl)cc2Cl)c(Cl)c1 (centres undefined)")
"true (1)"
>>> group("O=c1[nH]c(=O)n(C2C[C@H](O)[C@@H](CO)O2)cc1C(F)(F)F (some centres undefined)")
"false (0)"
>>> group("Clc1ccc(CSC(Cn2ccnc2)c2ccc(Cl)cc2Cl)cc1 (centres undefined)")
"true (1)"

API: the following record is the query input.
Tell me the recorded outcome of this test for `COc1c(C)c2c(c(O)c1C/C=C(\C)CCC(=O)O)C(=O)OC2` . true (1)

---

# experiment description: chemical genetic growth profiling, strain panel (AID 1159580);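 also: tested at 20 µM; growth read once vehicle control cultures reached saturation at 30 °C; 1 = growth at the plate median or of vehicle wells; lower values mean less growth of the strain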
# run parameters: S. cerevisiae deletion strains, growth OD, locus YMR263W, strain SAP30
The whole screen tested about 5,500 compounds, of which about 2,000 (36%) were called active. Roughly 18% stayed inconclusive and do not appear here. Rule as the data show it: active = normalized growth mostly below about 0.91 (no sharp cut-off); inconclusive = no clear call, values can overlap the other calls; inactive = mostly above about 0.92. The list shows a part of the results.
Give one outcome, nothing more. List: True for active, False for inactive

>>> group("O=[N+]([O-])c1ccc(C(O)C(O)CO)cc1 (stereo not given)")
"False"
>>> group("COP(=S)(OC)Oc1ccc([N+](=O)[O-])cc1")
"False"
>>> group("S=C1NC2(CCCCC2)NN1c1ccccc1")
"True"
>>> group("CN(C)c1ccc(-c2n[nH]c(=O)c3ccccc23)cc1[N+](=O)[O-]")
"False"
>>> group("COc1cscc1C(N)=O")
"False"
>>> group("O=S(=O)(NCc1ccc2c(c1)OCO2)c1ccc(F)c(Cl)c1")
"False"
>>> group("COc1cc(OC)c2c(=O)cc(-c3ccccc3)oc2c1")
"True"
>>> group("O=S(=O)(NCC1CC1)c1ccc(F)c(Cl)c1")
"False"

Tell me the recorded outcome of this test for `Cc1ccccc1/C=C/C1=NCCN1` . False

Same question for `COc1ccc(-c2cc(=O)c3c(OC)cc(OC)cc3o2)cc1` please. False

Same question for COc1ccc2c(c1)OCC(Cc1ccc(OC)c(OC(C)=O)c1)C2=O (stereo not given) please. False

Same question for `COC(=O)c1ccsc1N` please. False

Same question for `Nc1ncnc(SCc2ccc(Cl)cc2)n1` please. False

Same question for COC1=CC(=O)OC(CCc2ccc(OC)c(OC)c2)C1 (stereo not given) please. False

Same question for CC(=O)NC(CCC(=O)O)C(=O)O (stereo not given) please. False

Same question for `CC(C)c1nc(N(C)S(C)(=O)=O)nc(-c2ccc(F)cc2)c1/C=C/[C@@H](O)C[C@@H](O)CC(=O)O` please. False

Same question for `COc1ccc(C(=O)c2sc(Nc3ccccc3)nc2-c2ccccc2)cc1` please. False

Same question for `Nc1ccc(Oc2ccc(Cl)cc2C2CCCCC2)nc1` please. True

Same question for `Cc1onc2c(=O)n(-c3ccccc3)nc(-c3ccccc3)c12` please. False

Same question for Cc1ccccc1N1CCN(S(=O)(=O)C[C@]23CCC(CC2NC(=O)[C@@H](N)CCS(C)(=O)=O)C3(C)C)CC1 (stereo not given in full) please. False

Same question for `OCc1nccn1Cc1ccc(Cl)cc1` please. False

Same question for CCCCCCCCCCCC(=O)OCC(COP(=O)(O)OCC(O)COP(=O)(O)OCC(COC(=O)CCCCCCCCCCC)OC(=O)CCCCCCCCCCC)OC(=O)CCCCCCCCCCC (stereo not given) please. False

Same question for `O=C1NN(c2ccccc2)C(=S)Nc2ccccc21` please. False

Same question for `CCN1CN=C(SCc2ccc(Br)cc2)NC1` please. False

Same question for `C1N2CN3CN1CN(C2)C3` please. False

---

# experiment description: chemical genetic growth profiling, strain panel (AID 1159580);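 also: tested at 20 µM; growth read once vehicle control cultures reached saturation at 30 °C; 1 = growth at the plate median or of vehicle wells; lower values mean less growth of the strain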
# run parameters: S. cerevisiae deletion strains, growth OD, locus YNR049C, strain mso1, stronger effect = lower value
The campaign covered roughly 5,500 compounds. About 2,000 (36%) were called active. Roughly 18% stayed inconclusive and do not appear here. The list shows a part of the results.
recorded endpoint: normalized growth
One number for each entry.

Illustrative cases are given below, each with its answer.
>>> measured_result("CC(=O)N[C@@H](CCC(=O)O)C(=O)O")
1.02
>>> measured_result("CC(=O)C1CC[C@H]2C3CC[C@H]4C[C@H](O)CC[C@]4(C)C3CC[C@]12C (stereo partly specified)")
1.01
>>> measured_result("COc1c(C)c2c(c(O)c1C/C=C(\\C)CCC(=O)O)C(=O)OC2")
0.607
>>> measured_result("O=c1[nH]c(=O)n(C2C[C@H](O)[C@@H](CO)O2)cc1C(F)(F)F (stereo partly specified)")
0.957
>>> measured_result("O=C(O)COc1ccc(Cl)cc1Cl")
0.993
>>> measured_result("C[C@@H]1CC2C3CCC4=CC(=O)C=C[C@]4(C)[C@@]3(F)[C@@H](O)C[C@]2(C)[C@@]1(O)C(=O)CO (stereo partly specified)")
0.984
>>> measured_result("COC(=O)[C@H](c1ccccc1Cl)N1CCc2sccc2C1")
0.978
>>> measured_result("COc1ccc2nc(S(=O)Cc3ncc(C)c(OC)c3C)[nH]c2c1 (stereo unspecified)")
1.02

For every record below, what is its normalized growth?
1. O=C(O)CCCCCCCC(=O)O
2. CCN1C[C@@]2(COC)C3[C@@H](OC)[C@H]4[C@@H]1[C@]3(C(OC)C[C@H]2O)C1C[C@@]2(O)[C@H](OC(=O)c3ccccc3)C1[C@]4(OC(C)=O)[C@@H](O)[C@@H]2OC (stereo partly specified)
3. O=C(O)C1CCCNC1 (stereo unspecified)

1.01
1.01
1.02

For every record below, what is its normalized growth?
1. Fc1ccc([C@@H]2CCNC[C@H]2COc2ccc3c(c2)OCO3)cc1
2. COc1ccnc(CS(=O)c2nc3ccc(OC(F)F)cc3[nH]2)c1OC (stereo unspecified)
3. CC1C/C=C/C=C/C=C/C=C/C(O[C@@H]2O[C@H](C)[C@@H](O)[C@H](N)[C@@H]2O)CC2OC(O)(CC(O)CC3OC3/C=C/C(=O)O1)CC(O)C2C(=O)O (stereo partly specified)

[1, 1.03, 0.994]

For every record below, what is its normalized growth?
1. CC1[C@H](C)OC(=O)CC(O)CC(O)CC(O)CCC(O)C(O)C[C@]2(O)CC(O)C(C(=O)O)C(CC(OC3O[C@H](C)[C@@H](O)[C@H](N)[C@@H]3O)/C=C/C=C/C=C/C=C/CC/C=C/C=C/[C@H](C)[C@H]1O)O2 (stereo partly specified)
2. COc1ccc(CCC(=O)c2c(O)cc(O[C@@H]3O[C@H](CO)C(O)[C@H](O)C3O[C@@H]3O[C@@H](C)[C@H](O)[C@@H](O)[C@H]3O)cc2O)cc1O (stereo partly specified)
3. NCCCNCCSP(=O)(O)O
4. CC(O)(P(=O)(O)O)P(=O)(O)O
5. Oc1c(Cl)cc(Cl)c(Cl)c1Cc1c(O)c(Cl)cc(Cl)c1Cl
6. CC(=O)OC/C=C(\C)CC/C=C(\C)CC/C=C(\C)CC/C=C(\C)CC/C=C(\C)CC/C=C(\C)CC/C=C(\C)CC/C=C(\C)CCC=C(C)C

1: 0.951; 2: 1.02; 3: 0.963; 4: 0.985; 5: 0.0574; 6: 0.975

---

# experiment description: chemical genetic growth profiling, strain panel (AID 1159580);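 also: tested at 20 µM; growth read once vehicle control cultures reached saturation at 30 °C; 1 = growth at the plate median or of vehicle wells; lower values mean less growth of the strain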
# run parameters: S. cerevisiae deletion strains, growth OD, locus YKL160W, strain elf1
In all, about 5,500 compounds went through this assay and about 2,000 (36%) were called active. Not shown: some 18% with an inconclusive outcome. Rule as the data show it: active = normalized growth mostly below about 0.91 (no sharp cut-off); inconclusive = no clear call, values can overlap the other calls; inactive = mostly above about 0.92. The list shows a part of the results.
Give one outcome, nothing more. List: yes for active, no for inactive

Solved cases below.
>>> group("NCCCCCC(=O)O")
"no"
>>> group("Oc1c(Cl)cc(Cl)c(Cl)c1Cc1c(O)c(Cl)cc(Cl)c1Cl")
"yes"
>>> group("Clc1ccc(COC(Cn2ccnc2)c2ccc(Cl)cc2Cl)cc1 (stereo unspecified)")
"yes"
>>> group("COc1cc(NS(C)(=O)=O)ccc1Cc1c2ccccc2nc2ccccc12")
"no"

API: the following record is the query input.
Tell me the recorded outcome of this test for `NCCCCC(=O)O` . no
